run description: Dark toxicity against human U251 cells assessed as reduction in cell viability after 72 hrs by Cell-Titer Blue assay
Format: cell-based, U-251
measure name: EC50 at 72 h (µM)
Return type: number; implicit unit µM.

Per the records, this compound ( COc1cc(COc2ccc(NC(=O)CCCc3ccc(-c4cccnc4F)cc3)cc2)c([N+](=O)[O-])cc1OC ) has EC50 at 72 h equal to 72

====

run description: Dark toxicity against patient-derived RN1 cells assessed as reduction in cell viability after 72 hrs by Cell-Titer Blue assay
Type: cell-based
conditions: human
measure name: EC50 at 72 h

Looking up COc1cc(COc2ccc(NC(=O)CCCc3ccc(-c4cccnc4F)cc3)cc2)c([N+](=O)[O-])cc1OC , I see its EC50 at 72 h listed as 37.4 µM

====

System: U-251
run description: Phototoxicity against human U251 cells assessed as reduction in cell viability under UV irradiation of 1800 mW for 1 min measured after 72 hrs by Cell-Titer Blue assay
Format: functional, cell-based
conditions: U-251, light or radiation study
The following compounds are listed with their measured pEC50 values.
Scale explanation: pEC50 corresponds to minus log10 of a concentration expressed in moles per litre.

* O=C(CCCc1ccc(-c2cccnc2F)cc1)Nc1ccc(O)cc1 | 5.85

Could you now look at the following compound, please?
Measured pEC50 of COc1cc(COc2ccc(NC(=O)CCCc3ccc(-c4cccnc4F)cc3)cc2)c([N+](=O)[O-])cc1OC : 5.68
